- tested target: 14-3-3-E (Homo sapiens)
- Sequence (P62258 whole entry): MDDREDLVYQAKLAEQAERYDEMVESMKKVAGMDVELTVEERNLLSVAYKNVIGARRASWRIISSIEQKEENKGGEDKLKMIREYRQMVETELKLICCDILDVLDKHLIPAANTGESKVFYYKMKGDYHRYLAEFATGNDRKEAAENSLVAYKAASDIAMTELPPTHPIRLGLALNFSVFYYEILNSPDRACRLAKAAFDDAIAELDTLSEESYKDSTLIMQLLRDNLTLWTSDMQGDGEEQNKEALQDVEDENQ
pKd: −log10 of the molar value. Several values for one entry are separate records, joined by “and”; a condition that tells them apart may be missing. Identical values can stand only once.

compound: O=c1cc(COc2cc(Cl)cc(Cl)c2)[nH][nH]1 [P2]
tested target: 14-3-3-E (Homo sapiens)
pKd: 5.55 and 5.54

---

- tested target: 14-3-3-Q (Homo sapiens, UniProt P27348)
- Sequence (P27348 1-245): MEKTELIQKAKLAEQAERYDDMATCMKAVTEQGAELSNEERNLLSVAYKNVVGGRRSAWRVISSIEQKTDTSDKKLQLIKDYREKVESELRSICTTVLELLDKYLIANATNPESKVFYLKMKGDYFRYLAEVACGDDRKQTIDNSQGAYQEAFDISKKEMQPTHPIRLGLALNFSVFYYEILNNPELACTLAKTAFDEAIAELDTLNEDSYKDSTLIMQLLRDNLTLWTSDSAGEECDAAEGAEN
pKd: −log10 of the molar value.

compound: O=c1cc(COc2cc(Cl)cc(Cl)c2)[nH][nH]1 [P2]
tested target: 14-3-3-Q (Homo sapiens, UniProt P27348)
pKd: 5.36
